The entries below are paired with their reported melting point.
Give a bare numeral; the unit °C is implied.

In [3]: df
Out[3]:
                                   compound  number
0      c1ccc2c(c1)Cc1ccccc1-2 [9H-Fluorene]     116
1              O=C1CCCCCCC1 [cyclooctanone]      41
2  Cc1ccc(Cl)cc1 [1-Chloro-4-methylbenzene]     7.5
3       Brc1ccc(Br)cc1 [1,4-Dibromobenzene]      88
4          CCCC(=O)c1ccccc1 [butyrophenone]      12

Item: C[C@]12CCC(=O)C=C1CC[C@@H]1[C@@H]2CC[C@@]2(C)[C@H]1CC[C@]2(C)O [methyltestosterone] | melting point: 164

Item: OCc1cccc(Oc2ccccc2)c1 [(3-Phenoxyphenyl)methanol] | melting point: 10

====

The entries below are paired with their reported melting point.
Give a bare numeral; the unit °C is implied.

Example results:
molecule	reading-unit	number
CC(=O)OCc1ccccc1 [benzyl acetate]	°C	-51
CCOC(=O)c1sc(N)nc1C [ethyl 2-amino-4-methylthiazole-5-carboxylate]	°C	174
C[C@H]1O[C@@H](O[C@H]2[C@@H](O)C[C@H](O[C@H]3[C@@H](O)C[C@H](O[C@H]4CC[C@@]5(C)[C@H](CC[C@@H]6[C@@H]5CC[C@]5(C)[C@@H](C7=CC(=O)OC7)CC[C@]65O)C4)O[C@@H]3C)O[C@@H]2C)C[C@H](O)[C@@H]1O	°C	256
O=C(O)c1cc(F)c(Cl)nc1Cl	°C	154
CCCCCCCCCCCCCCC(C)O (centres undefined)	°C	47
O=C(O)CSc1cccc2cccc(Cl)c12	°C	156
CCCCCCCCCCCCCCCCC [N-heptadecane]	°C	22
O=C(O)CN1C(=O)c2ccccc2C1=O	°C	196

Please find the next molecule below.
Item: "O=C(O)c1ccc(C(F)(F)F)cc1F" | melting point: 168

====

The entries below are paired with their reported melting point.
Give a bare numeral; the unit °C is implied.

Item: Clc1cc(Cl)c(-c2cc(Cl)c(Cl)c(Cl)c2Cl)cc1Cl [PCB-180] | melting point: 112

Item: CCCCOc1ccc(CC(=O)NO)cc1 [bufexamac] | melting point: 153

====

The entries below are paired with their reported melting point.
Give a bare numeral; the unit °C is implied.

Example results:
In [3]: df
Out[3]:
                                   molecule  number
0               CCCCCCCCCl [1-chlorooctane]     -58
1  C(=Cc1ccccc1)Cc1ccccc1 [benzene, 1,1'-(1-propene-1,3-diyl)bis-]     155
2  CC(C)(C)N1CCNC1=O [1-tert-butyl-2-imidazolidinone]     137

Item: COc1ccccc1CC#N [2-methoxyphenylacetonitrile] | melting point: 68

Item: c1ccc(C2CCCCC2)cc1 [Cyclohexylbenzene] | melting point: 5

Item: O=C(c1ccccc1)C(O)c1ccccc1 (centres undefined) [benzoin] | melting point: 135

Item: COc1cc(C=O)cc(Br)c1O [5-bromovanillin] | melting point: 164

Item: NC(=O)c1ccc(CO)cc1 [p-hydroxymethyl_benzamide] | melting point: 135

Item: CS(=O)(=O)c1ccc(B(O)O)cc1 [4-(methylsulfonyl)benzeneboronic acid] | melting point: 200

====

The entries below are paired with their reported melting point.
Give a bare numeral; the unit °C is implied.

Example results:
>>> df
                                   compound  reading_unit  number
0  O=C(Cl)OCC1c2ccccc2-c2ccccc21 [9-fluorenylmethyl chloroformate]            °C      62
1                  COc1ccccc1OC [veratrole]            °C      22

Please find the next compound below.
Item: Oc1ccc(-c2ccccc2)cc1 [4-phenylphenol] | melting point: 166

====

outcome-measure: melting point (°C)
Give a bare numeral; the unit °C is implied.

Example results:
In [3]: df
Out[3]:
                                   compound  outcome_measure  reading_unit  number
0  CC(=O)NS(=O)(=O)c1ccc(N)cc1 [Sulfacetamide]    melting point            °C     183
1           CCC(C)(C)O [2-methyl-2-butanol]    melting point            °C      -8
2             CCOC(=O)CC [ethyl_propionate]    melting point            °C     -73
3  CN1CC[C@@H](c2ccc(F)cc2)[C@H](CO)C1 [(3S,4R)-4-(4-fluorophenyl)-1-methyl-3-piperidinemethanol]    melting point            °C      96
4  CCN(CC)c1ccc(C(=O)CBr)cc1 [2-bromo-4'-(diethylamino)acetophenone]    melting point            °C      51
5                 Oc1cccc(O)c1 [Resorcinol]    melting point            °C     111
6  O=C(OCc1ccccc1)c1ccccc1 [Benzyl Benzoate]    melting point            °C      21
7  O=C(O)COc1ccc(F)cc1 [4-fluorophenoxyacetic acid]    melting point            °C     105

Item: Nc1cc(Br)cnc1N [5-bromo-2,3-diaminopyridine] | melting point: 157

Item: CCC1(c2ccccc2)C(=O)NC(=O)N(C)C1=O (configuration not stated) [mephobarbital] | melting point: 176

Item: CN1CCC(N(Cc2ccccc2)c2ccccc2)CC1 [bamipine] | melting point: 114

Item: Cc1cc([N+](=O)[O-])cc[n+]1[O-] [4-nitro-2-picoline n-oxide] | melting point: 156

====

outcome-measure: melting point (°C)
Give a bare numeral; the unit °C is implied.

In [3]: df
Out[3]:
                            compound  reading_unit  number
0  CC(CCc1oc2ccccc2c1-c1ccc(C)o1)=NO            °C     105

Item: CCOC(=O)CSCCC1NC(C(=O)O)CS1 (stereo not given) [letosteine] | melting point: 142

Item: CC(=O)OC1=c2ccccc2=NC1c1ccccn1 (stereo not given) [2-pyridin-2-yl-1H-indol-3-yl acetate] | melting point: 130

Item: N#Cc1cccc2c(N)cccc12 [5-aminonaphthalene-1-carbonitrile] | melting point: 137

Item: Oc1ccccc1O [1,2-Dihydroxybenzene] | melting point: 105

Item: N#CCc1ccc(C#N)cc1 [p-cyano_phenylacetonitrile] | melting point: 100

Item: CCCN(CCC)S(=O)(=O)c1ccc(C(=O)O)cc1 [4-(Dipropylsulfamoyl)benzoic acid] | melting point: 195

====

The entries below are paired with their reported melting point.
Give a bare numeral; the unit °C is implied.

Example results:
>>> print(df.to_string())
                                   molecule  number
0  O=C(O)c1cc(O)ccc1O [2,5-dihydroxybenzoic_acid]     205
1  CC(=NNC(=O)c1ccncc1)c1ccco1 [a-Methylfurfurylidenehydrazide of Isonicotinic Acid]     199

Item: "CC(=O)Nc1ccc(OC(=O)c2ccccc2O)cc1" | melting point: 187

Item: CC(C)C(O)C(C)(C)C (stereo unspecified) | melting point: -11

Item: CC(C)Cc1ccc(C(C)C(=O)O)cc1 (stereo unspecified) [2-(4-Isobutylphenyl)propanoic acid] | melting point: 77.5

Item: "Cc1cccc(C)c1[N+](=O)[O-]" | melting point: 16

Item: "N#CCc1ccc(I)cc1" | melting point: 53

Item: Cc1ccccc1N1C(=O)c2cc(S(N)(=O)=O)c(Cl)cc2NC1C (stereo unspecified) | melting point: 252

Item: COC(=O)c1ccc2c(c1)CC1(CCC(c3ccc(C(C)(C)C)cc3)CC1)C2 (stereo unspecified) | melting point: 117

Item: "CC(C)(C)c1ccc(Br)cc1" | melting point: 16

Item: CCC(C)NC(=O)C(C(F)(F)F)C(F)(F)F (stereo unspecified) | melting point: 112

Item: O=C1Cc2cccc(Br)c21 [5-bromobicyclo[4.2.0]octa-1,3,5-trien-7-one] | melting point: 82

Item: "CC(C)Cl" | melting point: -117

Item: "CC1=C(/C=C/C(C)=C/C=C/C(C)=C/C(=O)O)C(C)(C)CCC1" | melting point: 181

Item: CCOc1ccc(NC(C)=O)cc1 [phenacetin] | melting point: 134

Item: O=C(Cl)c1cc([N+](=O)[O-])cc([N+](=O)[O-])c1 [3,5-dinitrobenzoyl chloride] | melting point: 67

Item: "OB(O)c1ccc(Cl)cc1" | melting point: 273

Item: "CC(=O)CC(=O)c1ccccc1" | melting point: 59

Item: "Cc1ccc(Cl)c(N)c1" | melting point: 32

====

The entries below are paired with their reported melting point.
Give a bare numeral; the unit °C is implied.

In [3]: df
Out[3]:
                                   compound  number
0  NC(=O)C(Cl)(Cl)Cl [2,2,2-Trichloroacetamide]     142
1                        C=CCc1ccccc1C(=O)O      84
2  O=C(Cl)N(c1ccccc1)c1ccccc1 [diphenylcarbamyl chloride]      84
3             Cc1ccc(NC(=O)Nc2ccc(C)cc2)cc1     266
4          CCCCCC(O)CC (stereo unspecified)     -45
5  COc1ccc(CCN2CCC(Nc3nc4ccccc4n3Cc3ccc(F)cc3)CC2)cc1     149
6  COC(=O)c1ccc(C(=O)O)cc1 [mono-methyl_terephthalate]     221
7  O=C(O)c1ccccc1-c1c2cc(Br)c(=O)c(Br)c-2oc2c(Br)c(O)c(Br)cc12     300
8  CCCOC(=O)c1ccc(O)cc1 [propyl p-hydroxybenzoate]      96
9                      COc1cc(=O)oc2ccccc12     124

Item: Cc1cc(O)ccc1Cl [4-chloro-3-methylphenol] | melting point: 67

Item: CCOC(=O)c1sc2sc(C(=O)OCC)c(C)c2c1C [diethyl 3,4-dimethylthieno[2,3-b]thiophene-2,5-dicarboxylate] | melting point: 140

Item: O=C1CCC(N2C(=O)c3ccccc3C2=O)C(=O)N1 (stereo unspecified) [2-(2,6-Dioxopiperidin-3-yl)-1H-isoindole-1,3(2H)-dione] | melting point: 270

Item: C[C@@H]1CCCC[C@@H]1O (relative stereo) [cis-2-methylcyclohexanol] | melting point: 8

Item: COc1cccc(C(N)=O)c1 [3-methoxybenzamide] | melting point: 133

Item: "O=[N+]([O-])c1ccccc1C=NO" | melting point: 100

Item: Cc1cccc2c1-c1nc3ccccc3nc1-2 [1-methylbenzo[3,4]cyclobuta[1,2-b]quinoxaline] | melting point: 135

Item: N[C@@H](Cc1ccc(O)c(O)c1)C(=O)O [l-dopa] | melting point: 277

Item: "Cc1cc(C)cc(C)c1" | melting point: -45

Item: CC(C)(C)NCC(O)COc1cc(Cl)ccc1Cl (stereo unspecified) | melting point: 82

Item: "Nc1n[nH]cc1Br" | melting point: 136

Item: "OB(O)c1ccc(-c2ccccc2)cc1" | melting point: 243

Item: "C[C@H](CCC(=O)O)[C@H]1CC[C@H]2[C@@H]3CC[C@@H]4C[C@H](O)CC[C@]4(C)[C@H]3C[C@H](O)[C@]12C" | melting point: 174

Item: CC(=O)Oc1ccc([N+](=O)[O-])cc1 [4-Nitrophenyl acetate] | melting point: 78

Item: "Cc1ccn(C(N)=O)n1" | melting point: 148

Item: "CC(C)(C)C(=O)Nc1ccccc1B(O)O" | melting point: 270
